Molecular target: purified DHFR of strain Sp1/1 of Streptococcus pneumoniae (Streptococcus pneumoniae serotype 4, UniProt Q54801)
Sequence (Q54801 whole entry I100L, form open): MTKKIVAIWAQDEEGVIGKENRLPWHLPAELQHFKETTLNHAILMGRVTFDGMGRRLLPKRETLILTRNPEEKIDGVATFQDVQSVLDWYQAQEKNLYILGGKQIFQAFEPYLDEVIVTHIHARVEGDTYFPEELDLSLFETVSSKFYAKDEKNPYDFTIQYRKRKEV
Type: biochemical
Conditions: Table 1; IC50 against purified DHFR of strain Sp1/1
# reported IC50; entries follow
Quick note: give the figure in nM, leave out the unit.

Worked cases, answers included:
[
  {
    "Compound": "CCOc1cc(Cc2cnc(N)nc2N)cc(OCC)c1-c1cccc(N)c1",
    "Readout Unit": "nM",
    "Reported": 30
  },
  {
    "Compound": "CCOc1cc(Cc2cnc(N)nc2N)cc(OS(=O)(=O)N(C)C2CC2)c1-c1ccc(N)cc1 [Example 22e]",
    "Readout Unit": "nM",
    "Reported": 13
  },
  {
    "Compound": "CCOc1cc(Cc2cnc(N)nc2N)cc(OS(=O)(=O)N(C)C)c1-c1ccc(C)c(N)c1 [Example 31a]",
    "Readout Unit": "nM",
    "Reported": 1.9
  }
]

Continue with the next compound.
input: Give the measured IC50 of CCOc1cc(Cc2cnc(N)nc2N)cc(OS(=O)(=O)C(C)CC)c1-c1ccc(N)cc1 (stereo not shown) [Example 35a] .
output: 3.7
